test system: proline specific endopeptidase; assay: Inhibition of proline specific endopeptidase activity (residual peptidase activity); format: biochemical; settings: inhibitor concentration not given
// reported Residual Activity for each item listed
measurementType: Residual Activity

| compound | tgt | measured |
| --- | --- | --- |
| COc1ccc(C(=O)N2CCCC2=O)cc1 [Aniracetam, aniracetam, reference compound] | proline specific endopeptidase | 89.5 |
| O=C1CCCN1S(=O)(=O)c1ccccc1 [Synthetic Example 5,6, N-benzenesulfonyl-2-pyrrolidone] | proline specific endopeptidase | 51.3 |
| O=C1CCCN1S(=O)(=O)c1ccc(Cl)cc1 [Synthetic Example 3,4] | proline specific endopeptidase | 51.3 |
| Cc1ccc(S(=O)(=O)N2CCCC2=O)cc1 [Synthetic Example 1,2, N-(4'-toluenesulfonyl)-2-pyrrolidone] | proline specific endopeptidase | 47.4 |

# credit: patent US4833156A
